Quick reference: inhibition of the listed items.
# PROTOCOL: 384-well plate pilot, post-Golgi transport modulator project, inhibition of yeast transport mutant growth (AID 636); further: test concentration not given here
# ASSAY_CONTEXT: absorbance 615 nm, about 18 h, stronger effect = higher value
Reply with just the number (in %).

Cc1cc(=O)oc2cc(OCC(=O)OCc3nnc(-c4ccccc4)o3)ccc12	-6.18
COCCn1nnnc1C(c1cccs1)N1CCN(c2cc(C)ccc2C)CC1 (stereo unspecified)	1.3
O=C(CCS(=O)(=O)c1cccc2nsnc12)N1CCN(Cc2ccc3c(c2)OCO3)CC1	-6.71
C=CCn1c(-c2ccc(OC)cc2)nc2ccccc21	-4.27
COc1cccc(N2CCN(CC(=O)NCc3cccs3)CC2)c1	-3.38

query: So what's the measured inhibition for this one? CC(n1cnnn1)C12CC3CC(CC(C3)C1)C2 (stereo unspecified)
result: -1.2

query: So what's the measured inhibition for this one? CCOc1ccccc1NC(=O)N1C2CCCC1CC(NC(=O)C1CC1)C2 (stereo unspecified)
result: -6

query: So what's the measured inhibition for this one? `CC(=O)c1cc(C#N)c(SCC(=O)OC(C)C)nc1C`
result: -7.03
